# experimental.target: Synaptic vesicular amine transporter (Bos taurus) (UniProt Q27963)
# Sequence (Q27963 whole entry): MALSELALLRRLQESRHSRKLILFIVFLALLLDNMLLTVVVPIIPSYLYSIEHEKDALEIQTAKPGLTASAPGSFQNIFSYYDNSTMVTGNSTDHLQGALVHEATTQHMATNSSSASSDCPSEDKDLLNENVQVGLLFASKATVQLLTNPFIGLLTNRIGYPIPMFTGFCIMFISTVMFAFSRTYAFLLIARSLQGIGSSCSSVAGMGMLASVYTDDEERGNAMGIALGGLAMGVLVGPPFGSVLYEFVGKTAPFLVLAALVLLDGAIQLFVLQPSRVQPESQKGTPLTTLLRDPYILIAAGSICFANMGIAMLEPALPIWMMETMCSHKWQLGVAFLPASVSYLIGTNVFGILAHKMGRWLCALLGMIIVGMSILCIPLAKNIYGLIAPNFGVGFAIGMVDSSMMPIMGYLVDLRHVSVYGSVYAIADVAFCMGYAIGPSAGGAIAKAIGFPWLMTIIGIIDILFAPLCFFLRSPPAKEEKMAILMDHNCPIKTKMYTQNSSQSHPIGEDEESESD
# procedure.details: Km DA/Ki ratio was determined by different ghost preparations
Categorize each record by its Ratio using band A (below 0.4), band B (0.4 to below 0.8), band C (0.8 or more)

[Q] Which class holds C=C(c1ccc(O)cc1)C(C)N(CC)CC (stereo unspecified) ?
[A] band A

[Q] Would you mind sorting "C=C(CN)c1cccc(O)c1" into the appropriate category?
[A] band C

[Q] Which class holds "C=C(CN)c1ccc(O)cc1" ?
[A] band C

[Q] In plain terms, what class is "C=C(CN)c1ccc(OC)cc1" ?
[A] band A

[Q] Into which bin does this compound go? "C=C(CN)c1ccc(C)cc1"
[A] band B

[Q] Which Ratio category applies to "C=C(C[n+]1ccccc1)c1ccccc1" here?
[A] band A

[Q] Please let me know in which category the item "C=C(CN)c1ccc(Cl)cc1" belongs.
[A] band C

[Q] Class (by measured Ratio) for "C=C(CN)c1ccccc1"
[A] band B

[Q] Sort into band: "C=C(CN(CC)CC)c1ccc(O)cc1"
[A] band A

[Q] Into which category would you place "C=C(CN)c1cccc(OC)c1" ?
[A] band B

[Q] Which category fits this record: "C=C(CN)c1ccc(I)cc1"
[A] band C

[Q] # bin label for "NC/C(=C\Br)c1ccc(O)cc1"
[A] band B

[Q] Class? Entry: "C=C(CN)c1ccc(Br)cc1"
[A] band C

###

# Ki per entry
# experimental.target: Synaptic vesicular amine transporter (Bos taurus, UniProt Q27963)
# Sequence (Q27963 whole entry): as above
# procedure.details: Inhibitory constant for dopamine uptake into resealed bovine chromaffin granule ghosts through the vesicular monoamine transporter
Hi! Could you send only the number? It should be in µM, unit omitted.

[Q] Using Synaptic vesicular amine transporter (Bos taurus, UniProt Q27963) as the test system, report measured Ki of C=C(c1ccccc1)C(C)N (stereo unspecified) .
[A] 78.4

[Q] Param request: Ki | system Synaptic vesicular amine transporter (Bos taurus, UniProt Q27963) | item "C=C(C[n+]1ccccc1)c1ccccc1"
[A] 241

###

# experimental.target: Synaptic vesicular amine transporter (Bos taurus) (UniProt Q27963)
# procedure.details: Km DA/Ki ratio was determined by different ghost preparations
assay.readout: Ratio
Reply with the value as a number alone.

Use these answered entries as a reference point.
C=C(c1ccccc1)C(C)N (stereo not drawn)    0.41
C=C(CN)c1ccc(F)cc1    0.8

Moving on to another compound below.
[Q] Give me measured Ratio, please, for this compound: "C=C(CNC)c1ccc(O)cc1"
[A] 0.39

###

# experimental.target: UniProt Q27963
# procedure.details: Inhibitory constant for dopamine uptake into resealed bovine chromaffin granule ghosts through the vesicular monoamine transporter
assay.readout: log10 Ki (log10 of the value in µM)
Plainly stated, the numbers are log10 of Ki given in µM.

These solved cases illustrate the format of a correct answer.
NC/C(=C\Br)c1ccc(O)cc1    1.70
C=C(CN)c1ccc(Cl)cc1    1.26
C=C(CN)c1ccc(O)cc1    1.19
C=C(CN)c1ccc(Br)cc1    1.25
C=C(CN)c1ccc(I)cc1    1.11
C=C(c1ccc(O)cc1)C(C)N(CC)CC (centres undefined)    2.32
C=C(CN)c1ccccc1    1.61
C=C(CN(CC)CC)c1ccc(O)cc1    2.31

[Q] Identify measured log10 Ki corresponding to "C=C(CN)c1ccc(OC)cc1"
[A] 2.01

[Q] Tell me measured log10 Ki for "C=C(CN)c1cccc(OC)c1" please.
[A] 1.48

[Q] Query log10 Ki for "C=C(CNC)c1ccc(O)cc1"
[A] 1.97

[Q] Return log10 Ki for the following molecule: "C=C(CN)c1cccc(O)c1"
[A] 1.22

[Q] Annotate the molecule "C=C(CN)c1ccc(C)cc1" with its measured log10 Ki.
[A] 1.75

[Q] Please give measured log10 Ki of the following entry: "C=C(CN)c1ccc(F)cc1"
[A] 1.63
